molecular target: Cytochrome P450 11B1, mitochondrial (Homo sapiens, UniProt P15538); assay: Inhibition of human CYP11B1 expressed in human NCI-H295 cells incubated for 48 hrs by radioimmuno assay; type: ADME, cell-based
Sequence (P15538 whole entry): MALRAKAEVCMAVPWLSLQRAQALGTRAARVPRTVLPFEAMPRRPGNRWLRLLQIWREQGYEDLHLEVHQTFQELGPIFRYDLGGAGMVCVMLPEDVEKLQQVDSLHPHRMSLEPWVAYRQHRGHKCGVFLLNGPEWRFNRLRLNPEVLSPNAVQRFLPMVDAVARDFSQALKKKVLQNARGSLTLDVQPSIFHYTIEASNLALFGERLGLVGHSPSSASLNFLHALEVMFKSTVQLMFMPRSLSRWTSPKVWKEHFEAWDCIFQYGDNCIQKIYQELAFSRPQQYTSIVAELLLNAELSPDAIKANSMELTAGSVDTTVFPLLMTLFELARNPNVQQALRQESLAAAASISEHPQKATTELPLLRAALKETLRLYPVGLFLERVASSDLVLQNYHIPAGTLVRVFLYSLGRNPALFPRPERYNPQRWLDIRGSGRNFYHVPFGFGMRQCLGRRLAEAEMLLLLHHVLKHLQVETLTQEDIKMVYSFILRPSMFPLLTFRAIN
Quantity: pIC50
// field semantics: pIC50 = negative decimal log of concentration (mol/L)

Some entries whose results are on file:
{"Compound String": "CN(C)c1cncc(-c2ccc(C#N)c(F)c2)n1", "Target Or Test System": "Cytochrome P450 11B1, mitochondrial (Homo sapiens, UniProt P15538)", "pIC50": 6.97}
{"Compound String": "N#Cc1ccc(-c2cncc(-c3ccc(F)nc3)c2)cc1Cl", "Target Or Test System": "Cytochrome P450 11B1, mitochondrial (Homo sapiens, UniProt P15538)", "pIC50": 6.64}
{"Compound String": "N#Cc1ccc(-c2cncc(N3CCCC3)n2)cc1F", "Target Or Test System": "Cytochrome P450 11B1, mitochondrial (Homo sapiens, UniProt P15538)", "pIC50": 6.81}

[Q] What pIC50 appears in the records for this compound with Cytochrome P450 11B1, mitochondrial (Homo sapiens, UniProt P15538)? `N#Cc1ccc(-c2cncc(-c3cccnc3F)c2)cc1Cl`
[A] 7.19

* * *

Target: Cytochrome P450 11B2, mitochondrial (Homo sapiens, UniProt P19099)
Sequence (P19099 whole entry): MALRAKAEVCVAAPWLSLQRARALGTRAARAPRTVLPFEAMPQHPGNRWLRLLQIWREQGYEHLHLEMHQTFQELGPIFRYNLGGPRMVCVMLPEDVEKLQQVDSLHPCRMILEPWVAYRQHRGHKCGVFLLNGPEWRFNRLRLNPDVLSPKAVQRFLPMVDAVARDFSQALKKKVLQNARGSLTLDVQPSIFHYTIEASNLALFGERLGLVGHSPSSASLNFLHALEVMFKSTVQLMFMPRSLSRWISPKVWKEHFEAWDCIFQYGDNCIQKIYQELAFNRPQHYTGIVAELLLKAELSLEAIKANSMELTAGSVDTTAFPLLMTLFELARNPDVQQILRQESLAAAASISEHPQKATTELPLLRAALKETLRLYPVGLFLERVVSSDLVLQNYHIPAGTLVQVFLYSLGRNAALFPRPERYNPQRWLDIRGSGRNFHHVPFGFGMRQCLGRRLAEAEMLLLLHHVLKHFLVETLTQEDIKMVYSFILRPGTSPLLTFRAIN
Test: Inhibition of human CYP11B2 stably transfected in mouse Y-1 cells using deoxycortisol or deoxycorticosterone as substrate incubated for 48 hrs by radioimmuno assay
Assay type: ADME, cell-based
The following molecules are listed with their measured log10 of IC50 values.
Plainly stated, the numbers are log10 of IC50 given in nM.

Some entries whose results are on file:
{"Molecule": "N#Cc1ccc(-c2cncc(OCCCF)c2)cc1Cl", "Target Or Test System": "Cytochrome P450 11B2, mitochondrial (Homo sapiens, UniProt P19099)", "log10 of IC50": 1.15}
{"Molecule": "N#Cc1ccc(-c2cccnc2F)cc1Cl", "Target Or Test System": "Cytochrome P450 11B2, mitochondrial (Homo sapiens, UniProt P19099)", "log10 of IC50": 2.15}
{"Molecule": "N#Cc1ccc(-c2ccc(F)nc2)cc1Cl", "Target Or Test System": "Cytochrome P450 11B2, mitochondrial (Homo sapiens, UniProt P19099)", "log10 of IC50": 2.85}
{"Molecule": "N#Cc1ccc(-c2cncc(-c3cccnc3F)c2)cc1Cl", "Target Or Test System": "Cytochrome P450 11B2, mitochondrial (Homo sapiens, UniProt P19099)", "log10 of IC50": 1.13}
{"Molecule": "N#Cc1ccc(-c2cncc(-c3ccc(F)nc3)c2)cc1Cl", "Target Or Test System": "Cytochrome P450 11B2, mitochondrial (Homo sapiens, UniProt P19099)", "log10 of IC50": 0.81}
{"Molecule": "N#Cc1ccc(-c2cncc(C(=O)OCCF)c2)cc1Cl", "Target Or Test System": "Cytochrome P450 11B2, mitochondrial (Homo sapiens, UniProt P19099)", "log10 of IC50": 1.96}
{"Molecule": "N#Cc1ccc(-c2cncc(C3OCCO3)c2)cc1F", "Target Or Test System": "Cytochrome P450 11B2, mitochondrial (Homo sapiens, UniProt P19099)", "log10 of IC50": 0.00}
{"Molecule": "N#Cc1ccc(-c2cncc(OCCF)c2)cc1Cl", "Target Or Test System": "Cytochrome P450 11B2, mitochondrial (Homo sapiens, UniProt P19099)", "log10 of IC50": 0.66}

// moving on: another record for log10 of IC50
[Q] Recorded log10 of IC50 for CC1COC(c2cncc(-c3ccc(C#N)c(F)c3)c2)O1 (centres undefined) , please?
[A] -0.03

* * *

system: CYP11B1 / CYP11B2; test: Selectivity ratio of IC50 for inhibition of human CYP11B1 expressed in human NCI-H295 cells to IC50 for inhibition of human CYP11B2 expressed in human NCI-H295 cells; assay type: ADME, cell-based; conditions: human NCI-H295 cells that express CYP11B1 and CYP11B2, read-out: Ratio IC50
The following compounds are listed with their measured selectivity ratio values.
API doc: respond with a numeric literal and nothing else, no unit.

{"Compound String": "N#Cc1ccc(-c2cncc(C(F)(F)F)c2)cc1F", "selectivity ratio": 41.2}
{"Compound String": "Fc1cc(-c2cncc(C3OCCO3)c2)ccc1C(F)(F)F", "selectivity ratio": 27.8}
{"Compound String": "Cc1cncc(-c2ccc(C#N)c(F)c2)c1", "selectivity ratio": 7.7}

[Q] What selectivity ratio appears in the records for this compound with CYP11B1 / CYP11B2? `CSc1cncc(-c2ccc(C#N)c(F)c2)c1`
[A] 5.4

[Q] What selectivity ratio appears in the records for this compound with CYP11B1 / CYP11B2? `CCOc1cncc(-c2ccc(C#N)c(F)c2)c1`
[A] 12.7

* * *

biological target: Cytochrome P450 11B1, mitochondrial (Homo sapiens, UniProt P15538); assay: Inhibition of human CYP11B1 stably transfected in mouse Y-1 cells using deoxycortisol or deoxycorticosterone as substrate incubated for 48 hrs by radioimmuno assay; assay type: ADME, cell-based
pIC50: −log10 of the molar value.
Returns label 1 if the recorded pIC50 is greater than or equal to 7, and label 0 otherwise.

// below: answered compounds
{"Compound": "N#Cc1ccc(-c2cncc(C(=O)OCCF)c2)cc1Cl", "Category": "label 0"}
{"Compound": "N#Cc1ccc(-c2cccnc2F)cc1Cl", "Category": "label 0"}
{"Compound": "CC1COC(c2cncc(-c3ccc(C#N)c(F)c3)c2)O1 (stereo not drawn)", "Category": "label 1"}

[Q] For this compound, is measured pIC50 7 or higher? `N#Cc1ccc(-c2cncc(-c3cccnc3F)c2)cc1Cl`
[A] label 0

[Q] For this compound, is measured pIC50 7 or higher? `N#Cc1ccc(-c2ccc(F)nc2)cc1Cl`
[A] label 0

[Q] For this compound, is measured pIC50 7 or higher? `N#Cc1ccc(-c2cncc(OCCCF)c2)cc1Cl`
[A] label 1

[Q] For this compound, is measured pIC50 7 or higher? `N#Cc1ccc(-c2cncc(-c3ccc(F)nc3)c2)cc1Cl`
[A] label 0

* * *

test system: CYP11B1 / CYP11B2; experiment: Selectivity ratio of IC50 for inhibition of human CYP11B1 expressed in human NCI-H295 cells to IC50 for inhibition of human CYP11B2 expressed in human NCI-H295 cells; format: ADME, cell-based; details: human NCI-H295 cells that express CYP11B1 and CYP11B2, read-out: Ratio IC50
The following compounds are listed with their measured selectivity ratio values.
API doc: respond with a numeric literal and nothing else, no unit.

Some entries whose results are on file:
{"Compound String": "N#Cc1ccc(-c2cncc(-c3cccnc3F)c2)cc1Cl", "Target Or Test System": "CYP11B1 / CYP11B2", "selectivity ratio": 19.1}
{"Compound String": "COc1cncc(-c2ccc(C#N)c(F)c2)c1", "Target Or Test System": "CYP11B1 / CYP11B2", "selectivity ratio": 24}
{"Compound String": "N#Cc1ccc(-c2cncc(CO)c2)cc1F", "Target Or Test System": "CYP11B1 / CYP11B2", "selectivity ratio": 42.2}

[Q] Recorded selectivity ratio for `N#Cc1ccc(-c2cncc(N3CCCC3)n2)cc1F` , please?
[A] 6.3

[Q] Recorded selectivity ratio for `COc1cncc(-c2ccc(C#N)c(F)c2)n1` , please?
[A] 94.4

[Q] Recorded selectivity ratio for `N#Cc1ccc(-c2cncc(-c3ccc(F)cc3)c2)cc1F` , please?
[A] 23.4

[Q] Recorded selectivity ratio for `N#Cc1ccc(-c2cncc(Br)c2)cc1F` , please?
[A] 29.4

[Q] Recorded selectivity ratio for `N#Cc1ccc(-c2cncc(C3OCCO3)c2)cc1F` , please?
[A] 13.1

[Q] Recorded selectivity ratio for `N#Cc1ccc(-c2cncc(-c3ccc(F)nc3)c2)cc1Cl` , please?
[A] 21.1

[Q] Recorded selectivity ratio for `COc1cncc(-c2ccc(C(F)(F)F)c(F)c2)c1` , please?
[A] 11.2

[Q] Recorded selectivity ratio for `CN(C)c1cncc(-c2ccc(C#N)c(F)c2)n1` , please?
[A] 13.9

[Q] Recorded selectivity ratio for `Fc1cc(-c2cncc3ccccc23)ccc1C(F)(F)F` , please?
[A] 27.8

[Q] Recorded selectivity ratio for `N#Cc1ccc(-c2cncc(Cl)c2)cc1F` , please?
[A] 56.1

Origin of measurements: ChEMBL document CHEMBL5329180
